Target: CD16B-NA2 (FcgRIIIb-NA2) (Homo sapiens, UniProt O75015)
Sequence (O75015 17-200 limits assumed): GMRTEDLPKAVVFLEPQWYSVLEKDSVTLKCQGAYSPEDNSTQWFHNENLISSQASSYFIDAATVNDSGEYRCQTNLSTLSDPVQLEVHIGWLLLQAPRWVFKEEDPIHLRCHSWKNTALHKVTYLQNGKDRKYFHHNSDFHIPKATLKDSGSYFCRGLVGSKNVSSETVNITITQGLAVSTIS
Experiment: SPR, antibody binding to anti-his Fab captured FcgR-his (% Rmax)
Details: 1 μM antibody
Measurement type: % Rmax hCD16B-NA2 (%)
Numbers only, in %.

Entry mAb8-IgG2.5G1-AY-V27 (protein, left off: another chain or arm of the molecule) constant: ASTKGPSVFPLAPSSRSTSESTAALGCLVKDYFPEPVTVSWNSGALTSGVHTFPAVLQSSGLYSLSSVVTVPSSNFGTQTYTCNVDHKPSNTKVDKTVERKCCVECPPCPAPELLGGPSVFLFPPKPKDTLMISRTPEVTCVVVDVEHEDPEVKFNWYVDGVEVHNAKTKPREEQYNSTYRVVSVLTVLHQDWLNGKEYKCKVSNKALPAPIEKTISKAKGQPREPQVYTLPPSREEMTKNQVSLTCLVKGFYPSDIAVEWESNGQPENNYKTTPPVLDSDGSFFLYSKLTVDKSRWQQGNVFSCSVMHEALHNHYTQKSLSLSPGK , % Rmax hCD16B-NA2 reported as 10
